B1: BCL2L13 (parent)
chain: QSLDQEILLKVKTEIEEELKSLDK

Variants of: B1
protocol: protein stability index of a GFP-peptide fusion (GPS, HEK-293T) (PSI 1-6); higher = more stable;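 also: lentivirally expressed fusions sorted by FACS into six bins by GFP to DsRed ratio, PSI derived from sequencing read proportions per bin multiplied by bin number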
assayContext: c terminus: a fixed tail appended
Below, each of the variants is paired with its reported protein stability index value.

# mutantName, protein stability index
data = [
    ("K10T", 4.84),
    ("L9S", 5.21),
    ("L3I", 4.72),
    ("S2Q", 4.97),
    ("I7Q", 5.12),
    ("I7F", 4.64),
    ("E18F", 3.8),
    ("L22W", 4.34),
    ("I7W", 2.94),
    ("I15G", 5.61),
    ("E18V", 3.69),
]
